Test Parameters: in water, 293.15 K
Where a SMILES comes first, the peptide text is derived from it. [ ]: non-standard residue; d: D form. pGlu = O=C1CC[C@@H](C(=O)O)N1; Thz = O=C(O)[C@@H]1CSCN1

# Compound, solubility (mole fraction)
measured = [
    ("O=C1CC[C@@H](C(=O)N2CSC[C@H]2C(=O)O)N1 ([pGlu]-[Thz]-OH)", 0.00234),
]

----------
Test Parameters: in ethanol, 298.15 K
Where a SMILES comes first, the peptide text is derived from it. [ ]: non-standard residue; d: D form. pGlu = O=C1CC[C@@H](C(=O)O)N1; Thz = O=C(O)[C@@H]1CSCN1

# Compound, solubility (mole fraction)
rows = [
    ("O=C1CC[C@@H](C(=O)N2CSC[C@H]2C(=O)O)N1 ([pGlu]-[Thz]-OH)", 0.00045),
]

----------
Test Parameters: in acetone, 278.15 K
Where a SMILES comes first, the peptide text is derived from it. [ ]: non-standard residue; d: D form. pGlu = O=C1CC[C@@H](C(=O)O)N1; Thz = O=C(O)[C@@H]1CSCN1

# Compound, solubility (mole fraction)
measured = [
    ("O=C1CC[C@@H](C(=O)N2CSC[C@H]2C(=O)O)N1 ([pGlu]-[Thz]-OH)", "3.1e-05"),
]

----------
Test Parameters: in n-butanol, 283.15 K
Where a SMILES comes first, the peptide text is derived from it. [ ]: non-standard residue; d: D form. pGlu = O=C1CC[C@@H](C(=O)O)N1; Thz = O=C(O)[C@@H]1CSCN1

# Compound, solubility (mole fraction)
measured = [
    ("O=C1CC[C@@H](C(=O)N2CSC[C@H]2C(=O)O)N1 ([pGlu]-[Thz]-OH)", 0.000282),
]

----------
Test Parameters: in isopropanol, 288.15 K
Where a SMILES comes first, the peptide text is derived from it. [ ]: non-standard residue; d: D form. pGlu = O=C1CC[C@@H](C(=O)O)N1; Thz = O=C(O)[C@@H]1CSCN1

# Compound, solubility (mole fraction)
measured = [
    ("O=C1CC[C@@H](C(=O)N2CSC[C@H]2C(=O)O)N1 ([pGlu]-[Thz]-OH)", 0.000209),
]

----------
Test Parameters: in DMF, 298.15 K
Where a SMILES comes first, the peptide text is derived from it. [ ]: non-standard residue; d: D form. pGlu = O=C1CC[C@@H](C(=O)O)N1; Thz = O=C(O)[C@@H]1CSCN1

# Molecule, solubility (mole fraction)
measured = [
    ("O=C1CC[C@@H](C(=O)N2CSC[C@H]2C(=O)O)N1 ([pGlu]-[Thz]-OH)", 0.0123),
]

----------
Test Parameters: in acetone, 303.15 K
Where a SMILES comes first, the peptide text is derived from it. [ ]: non-standard residue; d: D form. pGlu = O=C1CC[C@@H](C(=O)O)N1; Thz = O=C(O)[C@@H]1CSCN1

# Compound, solubility (mole fraction)
measured = [
    ("O=C1CC[C@@H](C(=O)N2CSC[C@H]2C(=O)O)N1 ([pGlu]-[Thz]-OH)", 0.000249),
]

----------
Test Parameters: in benzyl alcohol, 323.15 K
Where a SMILES comes first, the peptide text is derived from it. [ ]: non-standard residue; d: D form. pGlu = O=C1CC[C@@H](C(=O)O)N1; Thz = O=C(O)[C@@H]1CSCN1
Quantity Name: solubility (mole fraction)

# Compound, Numeric Result
measured = [
    ("O=C1CC[C@@H](C(=O)N2CSC[C@H]2C(=O)O)N1 ([pGlu]-[Thz]-OH)", 0.0128),
]

----------
Test Parameters: in acetonitrile, 318.15 K
Where a SMILES comes first, the peptide text is derived from it. [ ]: non-standard residue; d: D form. pGlu = O=C1CC[C@@H](C(=O)O)N1; Thz = O=C(O)[C@@H]1CSCN1

# Molecule, solubility (mole fraction)
measured = [
    ("O=C1CC[C@@H](C(=O)N2CSC[C@H]2C(=O)O)N1 ([pGlu]-[Thz]-OH)", 0.00159),
]

----------
Test Parameters: in water, 323.15 K
Where a SMILES comes first, the peptide text is derived from it. [ ]: non-standard residue; d: D form. pGlu = O=C1CC[C@@H](C(=O)O)N1; Thz = O=C(O)[C@@H]1CSCN1

# Molecule, solubility (mole fraction)
records = [
    ("O=C1CC[C@@H](C(=O)N2CSC[C@H]2C(=O)O)N1 ([pGlu]-[Thz]-OH)", 0.00604),
]

----------
Test Parameters: in ethanol, 308.15 K
Where a SMILES comes first, the peptide text is derived from it. [ ]: non-standard residue; d: D form. pGlu = O=C1CC[C@@H](C(=O)O)N1; Thz = O=C(O)[C@@H]1CSCN1

# Compound, solubility (mole fraction)
data = [
    ("O=C1CC[C@@H](C(=O)N2CSC[C@H]2C(=O)O)N1 ([pGlu]-[Thz]-OH)", 0.000986),
]
